target_under_test: Angiotensin II receptor (Cavia porcellus)
assay_comment: Inhibitory activity as antagonist of AII on guinea pig ileum
readout_label: IC50 (µM)

1. CC[C@H](C)[C@H](NC(=O)[C@@H]1CCCN1C(=O)[C@H](Cc1c[nH]cn1)N[C@H](C(N)=O)[C@@H](NC(=O)[C@H](Cc1ccc(O)cc1)NC(=O)[C@@H](NC(=O)[C@H](CCCN=C(N)N)NC(=O)CNC)C(C)C)C(C)C)C(=O)O
2. CC[C@H](C)[C@H](NC(=O)[C@@H]1CCCN1C(=O)[C@H](Cc1c[nH]cn1)NC(=O)[C@@H](NC(=O)[C@H](Cc1ccc(O)cc1)NC(=O)[C@@H](NC(=O)[C@H](CCCN=C(N)N)NC(=O)CNC)C(C)C)C(C)C)C(=O)O
(Q) Select the item with the higher value of IC50 from the options 1 and 2 listed. Could you answer with the label of the item you picked?
(A) 1
(1: 0.33 µM, 2: 0.00045 µM)

* * *

IC50 values by entry
target_under_test: Angiotensin II receptor (Cavia porcellus)
assay_comment: Inhibitory activity as antagonist of AII on guinea pig ileum
Peptide text beside a SMILES is read from it. * marks the point of attachment. Propanoyl(3-(4-MeO-Ph)) = COc1ccc(CCC(=O)*)cc1; Desaminotyrosyl = O=C(CCc1ccc(O)cc1)*; Cbz = O=C(OCc1ccccc1)*

Completed entries (count: 2):
>>> readout_value("CC[C@H](C)[C@H](NC(=O)[C@@H]1CCCN1C(=O)[C@H](Cc1c[nH]cn1)NC(=O)[C@@H](NC(=O)CCc1ccc(O)cc1)C(C)C)C(=O)O (Desaminotyrosyl-VHPI-OH)")
"> 15 µM"
>>> readout_value("CC[C@H](C)[C@H](NC(=O)[C@@H]1CCCN1C(=O)[C@H](Cc1c[nH]cn1)NC(=O)[C@@H](NC(=O)CCc1ccc(OC)cc1)C(C)C)C(=O)O ({Propanoyl(3-(4-MeO-Ph))}-VHPI-OH)")
"> 15 µM"

Sure, the documented IC50 for CC[C@H](C)[C@H](NC(=O)[C@@H]1CCCN1C(=O)[C@H](Cc1c[nH]cn1)NC(=O)[C@@H](NC(=O)OCc1ccccc1)C(C)C)C(=O)O (Cbz-VHPI-OH) is > 15 µM
